measured-quantity: IC50

Problem: Report IC50 under test system ERAP1 (Homo sapiens, UniProt Q9NZ08) for CC1(C)CCC1Oc1cc(Cl)c(C#N)cc1NS(=O)(=O)c1cc(C(=O)O)ccc1C1CC1 (single isomer, unassigned) [Example 93] .
Solution: 1 to 5 nM

Problem: Report IC50 under test system ERAP1 (Homo sapiens, UniProt Q9NZ08) for O=C(O)c1ccc(C2CC2)c(S(=O)(=O)Nc2cc(C(F)(F)F)ccc2OC2CCCC2)c1 [Example 4] .
Solution: 1 to 5 nM

Problem: Report IC50 under test system ERAP1 (Homo sapiens, UniProt Q9NZ08) for N#Cc1cc(NS(=O)(=O)c2cc(C(=O)O)ccc2C2CC2)c(O[C@@H]2CCOC2)cc1Cl [Example 48] .
Solution: < 1 nM

Problem: Report IC50 under test system ERAP1 (Homo sapiens, UniProt Q9NZ08) for CO[C@H]1C[C@@H](COc2cc(Cl)c(C#N)cc2NS(=O)(=O)c2cc(C(=O)O)ccc2C2CC2)C1 [Example 47] .
Solution: < 1 nM

Problem: Report IC50 under test system ERAP1 (Homo sapiens, UniProt Q9NZ08) for N#Cc1cc(NS(=O)(=O)c2cc(C(=O)O)ccc2C2CC2)c(OC2CC3(CC3)C2)cc1Cl [Example 34] .
Solution: < 1 nM

Problem: Report IC50 under test system ERAP1 (Homo sapiens, UniProt Q9NZ08) for N#Cc1cc(NS(=O)(=O)c2cc(C(=O)O)ccc2C2CC2)c(OC2CCC(O)C2)cc1Cl (racemic) [Example 111] .
Solution: 1 to 5 nM

Problem: Report IC50 under test system ERAP1 (Homo sapiens, UniProt Q9NZ08) for N#Cc1cc(NS(=O)(=O)c2cc(C(=O)O)ccc2C2CC2)c(OC2CCC23CCC3)cc1Cl (single isomer, unassigned) [Example 91] .
Solution: 1 to 5 nM

Problem: Report IC50 under test system ERAP1 (Homo sapiens, UniProt Q9NZ08) for Cc1oncc1-c1cc(NS(=O)(=O)c2cc(C(=O)O)ccc2C2CC2)c(OC2CCC2)cc1Cl [Example 60] .
Solution: < 1 nM

Problem: Report IC50 under test system ERAP1 (Homo sapiens, UniProt Q9NZ08) for N#Cc1cc(NS(=O)(=O)c2cc(C(=O)O)ccc2C2CC2)c(OC2CCC2O)cc1Cl (single isomer, unassigned) [Example 129] .
Solution: > 5 nM

Problem: Report IC50 under test system ERAP1 (Homo sapiens, UniProt Q9NZ08) for N#Cc1cc(NS(=O)(=O)c2cc(C(=O)O)ccc2C2CC2)c(OC2CCC2O)cc1Cl (single isomer, unassigned) [Example 135] .
Solution: > 5 nM

Problem: Report IC50 under test system ERAP1 (Homo sapiens, UniProt Q9NZ08) for N#Cc1cc(NS(=O)(=O)c2cc(C(=O)O)ccc2C2CC2)c(OC2CCCC2)cc1Cl [Example 1] .
Solution: < 1 nM

Problem: Report IC50 under test system ERAP1 (Homo sapiens, UniProt Q9NZ08) for N#Cc1cc(NS(=O)(=O)c2cc(C(=O)O)ccc2C2CC2)c(OC2CCC2O)cc1Cl (single isomer, unassigned) [Example 128] .
Solution: < 1 nM

Problem: Report IC50 under test system ERAP1 (Homo sapiens, UniProt Q9NZ08) for O=C(O)c1ccc(C2CC2)c(S(=O)(=O)Nc2cc(-c3ccns3)c(F)cc2OC2CCCC2)c1 [Example 21] .
Solution: 1 to 5 nM

Problem: Report IC50 under test system ERAP1 (Homo sapiens, UniProt Q9NZ08) for N#Cc1cc(NS(=O)(=O)c2cc(C(=O)O)ccc2C2CC2)c(OC2CCC23CC3)cc1Cl (single isomer, unassigned) [Example 106] .
Solution: < 1 nM

----------
For each of the compounds below, state its IC50.
- measured-target: ERAP1 (Homo sapiens)
- Sequence (Q9NZ08 37-941): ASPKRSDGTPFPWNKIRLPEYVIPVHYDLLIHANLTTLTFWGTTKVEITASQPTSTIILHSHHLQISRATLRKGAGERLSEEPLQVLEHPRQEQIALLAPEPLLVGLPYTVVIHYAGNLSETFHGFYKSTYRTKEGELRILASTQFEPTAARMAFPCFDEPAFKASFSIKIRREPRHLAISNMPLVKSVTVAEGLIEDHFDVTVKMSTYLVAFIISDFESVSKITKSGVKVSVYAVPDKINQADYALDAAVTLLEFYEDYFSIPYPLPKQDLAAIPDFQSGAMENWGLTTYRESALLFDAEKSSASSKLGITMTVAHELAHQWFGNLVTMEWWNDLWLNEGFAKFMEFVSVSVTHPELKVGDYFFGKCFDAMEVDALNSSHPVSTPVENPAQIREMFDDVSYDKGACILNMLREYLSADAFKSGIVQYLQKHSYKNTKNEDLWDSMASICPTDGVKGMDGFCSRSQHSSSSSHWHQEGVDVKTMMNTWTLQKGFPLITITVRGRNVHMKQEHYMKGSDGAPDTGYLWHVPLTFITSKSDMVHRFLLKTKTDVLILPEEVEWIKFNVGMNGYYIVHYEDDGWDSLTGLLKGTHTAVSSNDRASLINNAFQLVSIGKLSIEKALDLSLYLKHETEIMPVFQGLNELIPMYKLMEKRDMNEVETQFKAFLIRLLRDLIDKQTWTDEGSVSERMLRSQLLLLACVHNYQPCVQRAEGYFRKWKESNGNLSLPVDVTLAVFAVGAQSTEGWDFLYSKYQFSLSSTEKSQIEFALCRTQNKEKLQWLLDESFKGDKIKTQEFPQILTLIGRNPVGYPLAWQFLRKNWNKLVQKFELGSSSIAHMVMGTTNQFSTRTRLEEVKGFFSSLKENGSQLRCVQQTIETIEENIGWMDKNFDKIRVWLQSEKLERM

Problem: For the compound CC1CC(Oc2cc(Cl)c(C#N)cc2NS(=O)(=O)c2cc(C(=O)O)ccc2C2CC2)C1 (single isomer, unassigned) , report IC50.
Solution: < 1 nM

Problem: For the compound CC1CCC1Oc1cc(Cl)c(C#N)cc1NS(=O)(=O)c1cc(C(=O)O)ccc1C1CC1 (single isomer, unassigned) [Example 121] , report IC50.
Solution: < 1 nM

Problem: For the compound COC1CCCC1Oc1cc(Cl)c(C#N)cc1NS(=O)(=O)c1cc(C(=O)O)ccc1C1CC1 (single isomer, unassigned) [Example 104] , report IC50.
Solution: > 5 nM

Problem: For the compound N#Cc1cc(NS(=O)(=O)c2cc(C(=O)O)ccc2C2CC2)c(OC2CCC23CCC3)cc1Cl (stereo not shown) [Example 77] , report IC50.
Solution: < 1 nM

Problem: For the compound `N#Cc1cc(NS(=O)(=O)c2cc(C(=O)O)ccc2C2CC2)c(O[C@H]2C[C@H](C(F)(F)F)C2)cc1Cl` , report IC50.
Solution: 1 to 5 nM

Problem: For the compound `N#Cc1cc(NS(=O)(=O)c2cc(C(=O)O)ccc2C2CC2)c(OC2CCC2)cc1Cl` , report IC50.
Solution: < 1 nM

Problem: For the compound N#Cc1cc(NS(=O)(=O)c2cc(C(=O)O)ccc2C2CC2)c(OC2CCC2C2CC2)cc1Cl (mixture of isomers) [Example 108] , report IC50.
Solution: < 1 nM

----------
- measured-target: ERAP1 (Homo sapiens)
- Construct: Purified ERAP1(37-941)-10His (ERAP1)
- assay-comment: ERAP1 mediated hydrolysis of an amide substrate measured in a biochemical system (10-mer inhibition assay)
- test-conditions: purified ERAP1(37-941)-10His; 10-mer substrate; 23° C. for 1 h; excitation 279 nm, emission 355 nm; read-out: IC50 vs Decapeptide WRVYEKC(Dnp)ALK-acid (where Dnp is Dinitrophenyl maleimide) (10-mer)
measured-quantity: IC50

Problem: For the compound N#Cc1cc(NS(=O)(=O)c2cc(C(=O)O)ccc2C2CC2)c(OCC23C4C5C6C4C2C6C53)cc1Cl (stereo not drawn) [Example 79] , report IC50.
Solution: < 1 nM

Problem: For the compound CC1(COc2cc(Cl)c(C#N)cc2NS(=O)(=O)c2cc(C(=O)O)ccc2C2CC2)COC1 [Example 32] , report IC50.
Solution: 1 to 5 nM

Problem: For the compound CO[C@@H]1CCC[C@@H]1Oc1cc(Cl)c(C#N)cc1NS(=O)(=O)c1cc(C(=O)O)ccc1C1CC1 (single isomer, unassigned) [Example 143] , report IC50.
Solution: 1 to 5 nM

Problem: For the compound CC1CCC1Oc1cc(Cl)c(C#N)cc1NS(=O)(=O)c1cc(C(=O)O)ccc1C1CC1 (single isomer, unassigned) [Example 122] , report IC50.
Solution: 1 to 5 nM

Problem: For the compound CC1(Oc2cc(Cl)c(C#N)cc2NS(=O)(=O)c2cc(C(=O)O)ccc2C2CC2)CCCC1 [Example 81] , report IC50.
Solution: < 1 nM

Problem: For the compound O=C(O)c1ccc(C2CC2)c(S(=O)(=O)Nc2cc(-n3cnnn3)c(Cl)cc2OC2CCCC2)c1 [Example 10] , report IC50.
Solution: < 1 nM

Problem: For the compound CC1CCCC1Oc1cc(Cl)c(C#N)cc1NS(=O)(=O)c1cc(C(=O)O)ccc1C1CC1 (racemic) [Example 105] , report IC50.
Solution: < 1 nM

Problem: For the compound N#Cc1cc(NS(=O)(=O)c2cc(C(=O)O)ccc2C2CC2)c(O[C@@H]2CCC[C@H]2O)cc1Cl [Example 97] , report IC50.
Solution: < 1 nM

Problem: For the compound N#Cc1cc(NS(=O)(=O)c2cc(C(=O)O)ccc2C2CC2)c(OCC2CC(F)(F)C2)cc1Cl [Example 31] , report IC50.
Solution: 1 to 5 nM

Problem: For the compound N#Cc1cc(NS(=O)(=O)c2cc(C(=O)O)c(F)cc2C2CC2)c(OC2CCCC2)cc1Cl [Example 16] , report IC50.
Solution: < 1 nM

Problem: For the compound N#Cc1cc(NS(=O)(=O)c2cc(C(=O)O)ccc2C2CC2)c(OCC2CCC2)cc1Cl [Example 35] , report IC50.
Solution: < 1 nM

Problem: For the compound CC1(C)CCC[C@H]1Oc1cc(Cl)c(C#N)cc1NS(=O)(=O)c1cc(C(=O)O)ccc1C1CC1 [Example 63] , report IC50.
Solution: < 1 nM

Problem: For the compound Cc1cc(C#N)cc(NS(=O)(=O)c2cc(C(=O)O)ccc2C2CC2)c1OC1CCCC1 [Example 15] , report IC50.
Solution: > 5 nM

Problem: For the compound O=C(O)c1ccc(C2CC2)c(S(=O)(=O)Nc2cc(-n3cnnn3)ccc2OC2CCCC2)c1 [Example 8] , report IC50.
Solution: < 1 nM

Problem: For the compound N#Cc1cc(NS(=O)(=O)c2cc(C(=O)O)ccc2C2CC2)c(OC2CCC(C#N)C2)cc1Cl (racemic) [Example 74] , report IC50.
Solution: < 1 nM
